Just for reference, the RNAGym collection of RNA variant scans (doi:10.7554/elife.90254) is where these values come from.

B1: LINE1-full (parent)
chain: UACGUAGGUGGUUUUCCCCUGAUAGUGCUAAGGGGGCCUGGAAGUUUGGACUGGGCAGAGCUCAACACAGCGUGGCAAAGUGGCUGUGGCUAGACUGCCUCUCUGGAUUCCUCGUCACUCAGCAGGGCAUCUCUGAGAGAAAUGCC

Variants of: B1
Test: self-cleavage, relative activity (ratio to wild type); higher = more cleavage; in vitro, sequencing; the parent is a self-cleaving ribozyme
Entries are grouped by self-cleavage into these classes: group A (below 0.2), group B (0.2 to below 1), group C (1 or more)

| Mutation annotation | Class label |
| --- | --- |
| A22G U29C | group C |
| U73C C98U | group B |
| C84U U109C | group A |
| U26C U115A | group C |
| U14G A117G | group B |
| C71A G122A | group A |
| G10A A142G | group C |
| A50C U109C | group B |
| G41U U62C | group A |
| U9C U62C | group A |
| U102A U132C | group C |
| U29A A136U | group C |
| U96C A129C | group A |
| G36A C63U | group B |
| U23C U52C | group C |
| G83U U119A | group B |
| G55A U96A | group A |
| U100C A117U | group C |
| U109A | group C |
| A31G A107G | group C |
| U62A A117G | group A |
| C19A A50G | group C |
| A2U A67C | group A |
| U20C G27A | group C |
| U134C A136U | group C |
| A79G U87G | group A |
| G55A | group A |
